Experiment: Human HepG2 cell viability assay in 384 well format
Format: toxicity, cell-based
Design: dose 125 nL, time 70.5 hour; concentration not given beside the values
Settings: HepG2 cells, read-out: Inhibition
Items are presented alongside their recorded cytotoxicity at 70.5 h.
endpoint: cytotoxicity at 70.5 h (%)

• COc1cc(N2C[C@H]3CN(C(=O)c4cccnc4)C[C@H]3C2)ncn1 = -2.8
• CC(C)(C)C(=O)Nc1ccc(Oc2ccsc2C(=O)O)cc1 = 1.54
• COc1ccc2c(c1)OCC(CNC(=O)c1ccncc1)C2 (stereo not drawn) = 13.9
• CCOC(=O)c1n[nH]cc1CN1CCOC(Cc2ccccc2)C1 (stereo not drawn) = 0.539
• Cc1nc(CNC(C)c2ccc(OCC(=O)NC3CC3)cc2)cs1 (stereo not drawn) = 3.83
• O=C(CC1CCCC1)NCCn1ccc(-c2ccccn2)n1 = 4.96
• Cc1nc(C)c(C(=O)NCCNc2ncccn2)s1 = -5.75
• CC(=O)N1CC[C@]2(O)CCN(Cc3nc(C)c[nH]3)C[C@@H]2C1 = 9.69
• Cc1noc(C)c1C[S+]([O-])Cc1cn2cccc(C)c2n1 (stereo not drawn) = -4.48
• COc1ccc(C(=O)N2CCCS2(=O)=O)cc1 = -5.25
• CCC(C)NC(=O)Cn1ccc2c(C)nn(CC)c2c1=O (stereo not drawn) = 30.5
• Cc1cc(C)c(C#N)c(N2CCC(Cc3ccccc3)CC2)n1 = -2.18
• Cc1ncc(C(=O)N2C[C@H](CO)C[C@H](CN3CCOCC3)C2)c(=O)[nH]1 = 3.07
